Source of measurements: the supplement of paper PMC10567573

B1: ATL3 (parent)
chain: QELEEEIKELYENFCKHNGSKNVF

variants of: B1; assay: protein stability index of a GFP-peptide fusion (GPS, HEK-293T) (PSI 1-6); higher = more stable; details: c terminus: a fixed tail appended;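 note: lentivirally expressed fusions sorted by FACS into six bins by GFP to DsRed ratio, PSI derived from sequencing read proportions per bin multiplied by bin number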
Would you kindly list protein stability index for each of these variants?
Just the number.

# input Recorded protein stability index of G19A , please.
# output 2.59

# input What do we get for E4D ?
# output 3.62

# input What do we get for E9T ?
# output 2.59

# input What do we get for E6D ?
# output 3.59

# input What do we get for L3K ?
# output 4.55

# input What do we get for N18I ?
# output 2.04

# input What do we get for E2L ?
# output 2.21

# input What do we get for L10S ?
# output 4.25

# input What do we get for L10P ?
# output 4.23

# input What do we get for G19K ?
# output 2.4

# input What do we get for Y11R ?
# output 4.39

# input What do we get for G19Y ?
# output 2.85

# input What do we get for S20V ?
# output 2.93

# input What do we get for E4W ?
# output 2.39

# input What do we get for V23M ?
# output 3.24

# input What do we get for N18A ?
# output 2.24

# input What do we get for E2I ?
# output 2.36

# input What do we get for K8F ?
# output 2.48

# input What do we get for N13R ?
# output 2.55

# input What do we get for F14T ?
# output 3.69

# input What do we get for E12P ?
# output 3.31

# input What do we get for E4M ?
# output 2.14
